Settings: in sec-butanol, 313.15 K
QUANTITY_NAME: solubility (mole fraction)
Respond numerically, and do not add a unit to the figure.

Give the reported value of solubility (mole fraction) for this record: CC(C)(c1cc(Br)c(O)c(Br)c1)c1cc(Br)c(O)c(Br)c1
0.0364

###

Conditions: in n-pentanol, 328.15 K
QUANTITY_NAME: solubility (mole fraction)

Give the reported value of solubility (mole fraction) for this record: CC(C)(c1cc(Br)c(O)c(Br)c1)c1cc(Br)c(O)c(Br)c1
0.0705

###

Conditions: in n-propanol, 313.15 K
QUANTITY_NAME: solubility (mole fraction)
Respond numerically, and do not add a unit to the figure.

Give the reported value of solubility (mole fraction) for this record: CC(C)(c1cc(Br)c(O)c(Br)c1)c1cc(Br)c(O)c(Br)c1
0.0502
